Data origin: PubChem BioAssay (EPA / NIEHS)

Experiment: Tanguay_ZF_120hpf_SWIM_legacy: (Legacy) Oregon State University Tanguay Lab 120 Hour Post-fertilization zebrafish Assay for Swim Bladder Malformation (AID 2283654);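 note: swim bladder malformation in each larva scored yes or no under brightfield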
Records with an inconclusive call do not appear. Calls of active or inactive are those of the source. Rule for the calls: active = hit-call score of the fitted dose curve at least 0.9, where 1 is the maximum; inconclusive = response in the unintended direction; inactive = score below 0.9.
Output constraint: value belongs to active, inactive

Here are 8 compounds together with their reported answers.
Cc1ccc(N)c(N)c1; inactive
CC(C)(C)OOC(C)(C)CCC(C)(C)OOC(C)(C)C; inactive
Cc1ccc(N)cc1; inactive
c1ccc(C2CO2)cc1 (stereo not drawn); inactive
[As]#[In]; inactive
CCCCCOC(=O)c1ccccc1C(=O)OCCCCC; inactive
CN(C)C(=O)Nc1ccc(Cl)cc1; inactive
CC(C)N(Cc1ccccc1)C(=O)C(C)(C)C; inactive

Ask: What was the test verdict on `O=[N+]([O-])C(Br)(CO)CO` ?
Reply: inactive

Ask: Okay, and `CCCCCCCCOC(=O)c1ccc(C(=O)OCCCCCCCC)c(C(=O)OCCCCCCCC)c1` ?
Reply: inactive

Ask: Okay, and `Cc1ccc([N+](=O)[O-])cc1` ?
Reply: inactive

====

Assay: APR_HepG2_CellLoss_72hr: Apredica 72-hour HepG2 Assay for Cell Loss (AID 2282915)
Settings: high-content imaging
Active and inactive are the calls of the source. The calls were made as follows: active = hit-call score of the fitted dose curve at least 0.9, where 1 is the maximum; inactive = score below 0.9.
Output constraint: value belongs to label 1 for active, label 0 for inactive

Here are 5 compounds together with their reported answers.
CN(C)c1ccc(C(=O)c2ccc(N(C)C)cc2)cc1; label 1
CCC[CH2][Sn]([Cl])([CH2]CCC)[CH2]CCC; label 1
CC(C)N(Cc1ccccc1)C(=O)C(C)(C)C; label 0
CC(C)(C)C(O)(CCc1ccc(Cl)cc1)Cn1cncn1 (stereo unspecified); label 1
Cn1cc(-c2ccccc2)c(=O)c(-c2cccc(C(F)(F)F)c2)c1; label 1

Ask: What was the test verdict on CCCCC(CC)COC(=O)c1ccc(C(=O)OCC(CC)CCCC)c(C(=O)OCC(CC)CCCC)c1 (stereo unspecified) ?
Reply: label 0

====

Read-out: growth arrest and DNA damage 45 (GADD45G), GADD45G (gene 10912)
Assay: LTEA_HepaRG_GADD45G: Life Technologies and Expression Analysis (LTEA) Assay for growth arrest and DNA damage 45 (GADD45G) using HepaRG (AID 2283499)
Conditions: mRNA level, 48 h; actives raise or lower the signal
Active and inactive are the calls of the source. The calls were made as follows: active = hit-call score of the fitted dose curve at least 0.9, where 1 is the maximum; inactive = score below 0.9.
Assay readout: AC50

Recorded AC50, per entry:
O=P(OCCCl)(OCCCl)OCCCl; inactive
ClCCOCCCl; inactive
CCN(CC)CCO; inactive
COc1cc(C=O)cc2c1[C@H](COC(N)=O)[C@]1(OC(C)=O)ON2C[C@H]2[C@@H]1N2C(C)=O; 21.8 µM (active)
CCCCC(CC)COC(=O)c1ccc(C(=O)OCC(CC)CCCC)c(C(=O)OCC(CC)CCCC)c1 (centres undefined); inactive
Nc1ccc(Cc2ccc(N)cc2)cc1; inactive
CCOC(=O)[C@]1(c2ccccc2)Oc2ccccc2[C@@H]1N; 87.9 µM (active)
O=[N+]([O-])c1ccc(Oc2ccc(Cl)cc2Cl)cc1; inactive

Ask: I'd like to know its AC50. The compound in question is `CCC12COCN1COC2`
Reply: inactive

Ask: Okay, and `Oc1ccccc1Cl` ?
Reply: inactive

Ask: Okay, and O=C(O)C1C2CCC(O2)C1C(=O)O (centres undefined) ?
Reply: inactive

====

Test: BSK_LPS_SRB: Viability Assessment in the BioMAP Diversity Plus: LPS Assay (AID 2283079);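 note: total protein by sulforhodamine B absorbance as a cytotoxicity measure; measured one day after compound addition; fitted in both directions against DMSO so loss or gain of signal counts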
Conditions: primary human HUVEC with PBMC
Active and inactive are the calls of the source. How the source made its calls: active means hit-call score of the fitted dose curve at least 0.9, where 1 is the maximum; inactive means score below 0.9.
Output constraint: value belongs to 1.0 for active, 0.0 for inactive

Ask: What was the test verdict on `OCCOCCO` ?
Reply: 0.0

Ask: Okay, and `CCOC(=O)[C@]1(c2ccccc2)Oc2ccccc2[C@@H]1N` ?
Reply: 0.0

Ask: Okay, and `O=C(Oc1ccc(Br)cc1)N1CCN2CCC1CC2` ?
Reply: 0.0

Ask: Okay, and `CCCCCCCCn1sccc1=O` ?
Reply: 1.0

Ask: Okay, and `CCC[CH2][Sn]([Cl])([CH2]CCC)[CH2]CCC` ?
Reply: 1.0

Ask: Okay, and `CC(C)(OOC(C)(C)c1ccccc1)c1ccccc1` ?
Reply: 1.0

Ask: Okay, and `Oc1ccccc1Cl` ?
Reply: 0.0

Ask: Okay, and `COC(=O)c1ccccc1N` ?
Reply: 0.0

Ask: Okay, and `CNC(=O)Oc1cccc2c1OC(C)(C)C2` ?
Reply: 0.0

Ask: Okay, and `Clc1ccccc1Cl` ?
Reply: 0.0

Ask: Okay, and `[O-][Cl+]O` ?
Reply: 0.0

Ask: Okay, and `C1=Cc2cccc3cccc1c23` ?
Reply: 0.0

Ask: Okay, and `c1ccc2c(c1)-c1cccc3cccc-2c13` ?
Reply: 0.0

Ask: Okay, and `O=Cc1ccco1` ?
Reply: 0.0

Ask: Okay, and CCCCC(CC)COC(=O)c1ccc(C(=O)OCC(CC)CCCC)c(C(=O)OCC(CC)CCCC)c1 (stereo not given) ?
Reply: 0.0

Ask: Okay, and `c1ccc2c(c1)oc1ccccc12` ?
Reply: 0.0

Ask: Okay, and `CC(C)(C)OOC(=O)c1ccccc1` ?
Reply: 0.0

Ask: Okay, and `Brc1ccc(Oc2ccccc2)cc1` ?
Reply: 0.0

Ask: Okay, and CC(C)(C)C(O)(CCc1ccc(Cl)cc1)Cn1cncn1 (stereo not given) ?
Reply: 0.0

Ask: Okay, and `CN(C)C(=O)Nc1ccc(Cl)cc1` ?
Reply: 0.0

====

Assay: BSK_SAg_SRB: Viability Assessment in the BioMAP Diversity Plus: SAg Assay (AID 2283096);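 note: cells read one day after compound addition; hits may be either gain or loss of signal compared with DMSO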
Settings: primary human HUVEC with PBMC
Procedure: BSK_SAg is a cell-based, multiplexed-readout assay that uses umbilical vein endothelium and peripheral blood mononuclear cells, a human vascular primary cell co-culture, with measurements taken at 24 hours after chemical dosing in a 96-well plate.BSK_SAg_SRB is an assay component measured in the BSK_SAg assay. […] This assay endpoint, BSK_SAg_SRB, was analyzed with bidirectional fitting relative to DMSO as the negative control and baseline of activity. […]
The source made the active and inactive calls. Rule for the calls: active = hit-call score of the fitted dose curve at least 0.9, where 1 is the maximum; inactive = score below 0.9.
Output constraint: value belongs to t = active, f = inactive

Here are 7 compounds together with their reported answers.
CC(C)(OOC(C)(C)c1ccccc1)c1ccccc1; t
CCCCCOC(=O)c1ccccc1C(=O)OCCCCC; t
c1ccc2c(c1)oc1ccccc12; f
c1ccc2c(c1)-c1cccc3cccc-2c13; t
[O-][Cl+]O; f
CN(C)C(=O)Nc1ccc(Cl)cc1; f
Clc1ccc(Cl)c(Cl)c1; f

# ---- query compound ----
Ask: What was the test verdict on `Nc1ccc(N=Nc2ccccc2)cc1` ?
Reply: f

====

Test: CCTE_Shafer_MEA_dev_LDH: CCTE's Lactate Dehydrogenase Assay for Cytotoxicity in the Neural Network Formation Assay, Shafer Lab (AID 2284068);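 note: exposure for twelve days from plating with re-dosing on DIV 5 and 9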
Records with an inconclusive call do not appear. Calls of active or inactive are those of the source. The calls were made as follows: active = hit-call score of the fitted dose curve at least 0.9, where 1 is the maximum; inconclusive = response in the unintended direction; inactive = score below 0.9.
Output constraint: value belongs to active, inactive

Here are 3 compounds together with their reported answers.
CC(C)(C)C(O)(CCc1ccc(Cl)cc1)Cn1cncn1 (centres undefined); inactive
C1=Cc2cccc3cccc1c23; inactive
COC(=O)Nc1nc2ccccc2[nH]1; active

# ---- query compound ----
Ask: What was the test verdict on `Nc1cc(Cl)cc(C(=O)O)c1Cl` ?
Reply: inactive

====

Read-out: Tumor necrosis factor receptor 1 (TNFRSF1A), TNFRSF1A (gene 7132)
Assay: LTEA_HepaRG_TNFRSF1A: Life Technologies and Expression Analysis (LTEA) Assay for Tumor necrosis factor receptor 1 (TNFRSF1A) using HepaRG (AID 2283535)
Conditions: mRNA level, 48 h; actives raise or lower the signal
Method: LTEA_HepaRG is a cell based, multiplexed-readout assay that uses HepaRG, a human liver cell line, with measurements taken at 48 hours after chemical dosing on a 96-well plate.LTEA_HepaRG_TNFRSF1A is one of 102 assay component(s) measured in the LTEA HepaRG cell culture assay. It is a marker of Cell proliferation, survival, death.Data from the assay component LTEA_HepaRG_TNFRSF1A was analyzed into 1 endpoint. […]
Active and inactive are the calls of the source. Rule for the calls: active = hit-call score of the fitted dose curve at least 0.9, where 1 is the maximum; inactive = score below 0.9.
Output constraint: value belongs to yes (1) = active, no (0) = inactive

ClC1=C(Cl)[C@]2(Cl)[C@H]3[C@H]([C@@H]4C=C[C@H]3C4)[C@@]1(Cl)C2(Cl)Cl; no (0)
CCCSC(=O)N(CCC)CCC; no (0)
O=[N+]([O-])c1ccc(Oc2ccc(Cl)cc2Cl)cc1; no (0)
COC(=O)c1ccccc1N; no (0)

Ask: What was the test verdict on `CCCCCCCCOC(=O)c1ccc(C(=O)OCCCCCCCC)c(C(=O)OCCCCCCCC)c1` ?
Reply: no (0)

Ask: Okay, and `Nc1ccc(Cl)cc1N` ?
Reply: yes (1)

Ask: Okay, and `ClCCOCCCl` ?
Reply: no (0)

Ask: Okay, and `Brc1ccc(Oc2ccccc2)cc1` ?
Reply: no (0)

Ask: Okay, and `[Cl-].[Cl-].[Hg+2]` ?
Reply: no (0)

Ask: Okay, and `CCOC(=O)[C@]1(c2ccccc2)Oc2ccccc2[C@@H]1N` ?
Reply: yes (1)

Ask: Okay, and `CCCCOC(=O)c1ccccc1C(=O)OCc1ccccc1` ?
Reply: no (0)
